Assay Explanation: in vivo
Measurement Conditions: both, cynomolgus monkey, iv, 3 mg/kg, Cmax, cynomolgus, 3 mg/kg i.v., Day 1, mean
Where a SMILES comes first, the peptide text is derived from it. Bridges are numbered along the chain shown (N, C = ends).
Endpoint Label: Cmax
Answers without a unit are incomplete; give the number and then its unit.

Problem: Data request, read-out Cmax, for CC[C@H](C)[C@@H]1NC(=O)[C@@H]2CSSC[C@H](NC(=O)[C@H](CCCNC(=N)N)NC(=O)[C@@H]3CSSC[C@H](NC1=O)C(=O)N[C@@H]([C@@H](C)O)C(=O)N[C@@H](CCCNC(=N)N)C(=O)NCC(=O)N[C@@H](Cc1ccccc1)C(=O)N3)C(=O)N[C@@H](CC(C)C)C(=O)N[C@H]1CSSC[C@H](NC(=O)[C@H](C(C)C)NC(=O)CNC(=O)[C@H](CCCNC(=N)N)NC(=O)[C@H](CCCNC(=N)N)NC1=O)C(=O)N[C@@H](CCCNC(=N)N)C(=O)N2 [Peptide 1] (cyclo(GFCRCLCRRGVCRCICTR); disulfide 3-16, 5-14, 7-12)
Result: 4750 ng/mL

----------
Assay Explanation: in vivo
Measurement Conditions: both, cynomolgus monkey, iv, 5 mg/kg, MRTinf, cynomolgus, 5 mg/kg i.v., Day 1, mean
Where a SMILES comes first, the peptide text is derived from it. Bridges are numbered along the chain shown (N, C = ends).
Endpoint Label: MRT inf (h)
The reply should be a number in h, with the unit left off.

Problem: Data request, read-out MRT inf, for CC[C@H](C)[C@@H]1NC(=O)[C@@H]2CSSC[C@H](NC(=O)[C@H](CCCNC(=N)N)NC(=O)[C@@H]3CSSC[C@H](NC1=O)C(=O)N[C@@H]([C@@H](C)O)C(=O)N[C@@H](CCCNC(=N)N)C(=O)NCC(=O)N[C@@H](Cc1ccccc1)C(=O)N3)C(=O)N[C@@H](CC(C)C)C(=O)N[C@H]1CSSC[C@H](NC(=O)[C@H](C(C)C)NC(=O)CNC(=O)[C@H](CCCNC(=N)N)NC(=O)[C@H](CCCNC(=N)N)NC1=O)C(=O)N[C@@H](CCCNC(=N)N)C(=O)N2 [Peptide 1] (cyclo(GFCRCLCRRGVCRCICTR); disulfide 3-16, 5-14, 7-12)
Result: 2.94

----------
Assay Explanation: in vivo
Measurement Conditions: both, cynomolgus monkey, iv, 0.3 mg/kg, MRTinf, cynomolgus, 0.3 mg/kg i.v., Day 1, mean
Where a SMILES comes first, the peptide text is derived from it. Bridges are numbered along the chain shown (N, C = ends).
Endpoint Label: MRT inf (h)
The reply should be a number in h, with the unit left off.

Problem: Data request, read-out MRT inf, for CC[C@H](C)[C@@H]1NC(=O)[C@@H]2CSSC[C@H](NC(=O)[C@H](CCCNC(=N)N)NC(=O)[C@@H]3CSSC[C@H](NC1=O)C(=O)N[C@@H]([C@@H](C)O)C(=O)N[C@@H](CCCNC(=N)N)C(=O)NCC(=O)N[C@@H](Cc1ccccc1)C(=O)N3)C(=O)N[C@@H](CC(C)C)C(=O)N[C@H]1CSSC[C@H](NC(=O)[C@H](C(C)C)NC(=O)CNC(=O)[C@H](CCCNC(=N)N)NC(=O)[C@H](CCCNC(=N)N)NC1=O)C(=O)N[C@@H](CCCNC(=N)N)C(=O)N2 [Peptide 1] (cyclo(GFCRCLCRRGVCRCICTR); disulfide 3-16, 5-14, 7-12)
Result: 1.24
